target: KRAS WT (Homo sapiens (Human), UniProt P01116+P62937); assay: Ras-Raf disruption/FRET/MOA assay, KRAS WT; format: biochemical
Sequence (P01116 other isoform, or with tags, fused parts or gaps): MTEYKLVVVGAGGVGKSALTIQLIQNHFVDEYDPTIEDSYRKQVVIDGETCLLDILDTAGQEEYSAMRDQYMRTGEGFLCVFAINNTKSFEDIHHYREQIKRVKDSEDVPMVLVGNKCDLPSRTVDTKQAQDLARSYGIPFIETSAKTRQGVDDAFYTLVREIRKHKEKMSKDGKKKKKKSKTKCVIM
Sequence (P62937 whole entry): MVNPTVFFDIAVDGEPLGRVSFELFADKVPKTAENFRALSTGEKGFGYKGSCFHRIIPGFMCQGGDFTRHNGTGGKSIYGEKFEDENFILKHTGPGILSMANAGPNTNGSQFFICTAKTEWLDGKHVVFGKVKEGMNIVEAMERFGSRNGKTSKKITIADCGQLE
pIC50: −log10 of the molar value.
measured_attribute: pIC50

See these solved cases before continuing.
CCn1c(-c2cccnc2[C@H](C)OC)c2c3cc(ccc31)-c1cc(O)cc(c1)C[C@H](NC(=O)[C@H](C(C)C)N(C)C(=O)[C@@]1(C)CCCN1C(=O)[C@@H]1CN1)C(=O)N1CCC[C@H](N1)C(=O)OCC(C)(C)C2 [Example 241]: 7.00 to 8.00
CCn1c(-c2cccnc2[C@H](C)OC)c2c3cc(ccc31)-c1cc(O)cc(c1)C[C@H](NC(=O)[C@H](C(C)C)N(C)C(=O)[C@]13C[C@H]1CCN3C(=O)[C@H]1CN1)C(=O)N1CCC[C@H](N1)C(=O)OCC(C)(C)C2 [Example 244]: 6.00 to 7.00

Data request: Identify pIC50 associated with the compound CCn1c(-c2cccnc2COC)c2c3cc(ccc31)-c1cc(O)cc(c1)C[C@H](NC(=O)[C@H](C(C)C)N(C)C(=O)CCNC(=O)NCCCl)C(=O)N1CCC[C@H](N1)C(=O)OCC(C)(C)C2 [Example 25]
Data returned: 5.00 to 6.00

Data request: Identify pIC50 associated with the compound CCn1c(-c2cccnc2[C@H](C)OC)c2c3cc(ccc31)-c1cc(O)cc(c1)C[C@H](NC(=O)[C@@H](C(C)C)N(C)C(=O)[C@@]1(C)CCCN1C(=O)[C@H]1CN1)C(=O)N1CCC[C@H](N1)C(=O)OCC(C)(C)C2 [Example 240]
Data returned: 6.00 to 7.00

---

# pIC50 annotations
biological target: KRAS G12D (Homo sapiens (Human), UniProt P01116+P62937, G12D); test: Ras-Raf disruption/FRET/MOA assay (BRAF RBD, Cyclophilin A); assay type: biochemical; conditions: read-out: KRAS G12D FRET IC50
Sequence (P01116 other isoform, or with tags, fused parts or gaps G12D, one chain of several): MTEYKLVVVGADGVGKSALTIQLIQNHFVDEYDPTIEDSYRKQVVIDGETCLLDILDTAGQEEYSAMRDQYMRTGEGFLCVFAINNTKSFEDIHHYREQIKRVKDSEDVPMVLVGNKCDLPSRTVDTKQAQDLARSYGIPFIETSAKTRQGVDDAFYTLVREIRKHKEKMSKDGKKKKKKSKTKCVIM
pIC50: −log10 of the molar value.

CCn1c(-c2cc(N3CCN(C)CC3)cnc2[C@H](C)OC)c2c3cc(ccc31)-c1csc(n1)C[C@H](NC(=O)[C@H](C(C)C)N(C)C(=O)[C@@H]1OCC[C@@H]1c1cccnc1)C(=O)N1CCC[C@H](N1)C(=O)OCC(C)(C)C2 [Compound A490]: 5.00 to 6.00

Data request: Identify pIC50 associated with the compound CCn1c(-c2cnccc2COC)c2c3cc(ccc31)-c1cc(O)cc(c1)C[C@H](NC(=O)C(C)C1CCOCC1)C(=O)N1CCC[C@H](N1)C(=O)OCC(C)(C)C2 (stereo partly drawn) [Compound A258]
Data returned: < 5.00

Data request: Identify pIC50 associated with the compound CCn1c(-c2cccnc2[C@H](C)OC)c2c3cc(ccc31)-c1csc(n1)C[C@H](NC(=O)[C@H](C(C)C)N(C)C(=O)N1CC([C@H](C)COC)C1)C(=O)N1CCC[C@H](N1)C(=O)OCC(C)(C)C2 [Compound A533]
Data returned: 6.00 to 7.00

Data request: Identify pIC50 associated with the compound CCn1c(-c2cccnc2[C@H](C)OC)c2c3cc(ccc31)-c1cc(O)cc(c1)C[C@H](NC(=O)[C@H](C(C)C)N(C)C(=O)C1CCC(C(F)(F)F)O1)C(=O)N1CCC[C@H](N1)C(=O)OCC(C)(C)C2 (stereo partly drawn) [Compound A408]
Data returned: 6.00 to 7.00

Data request: Identify pIC50 associated with the compound CCn1c(-c2cccnc2[C@H](C)OC)c2c3cc(ccc31)-c1cc(O)cc(c1)C[C@H](NC(=O)[C@H](C(C)C)N(C)C(=O)[C@@H]1OCC[C@@H]1c1ccccc1)C(=O)N1CCC[C@H](N1)C(=O)OCC(C)(C)C2 [Compound A415]
Data returned: 7.00 to 8.00

Data request: Identify pIC50 associated with the compound CCn1c(-c2cnccc2COC)c2c3cc(ccc31)-c1cc(O)cc(c1)C[C@H](NC(=O)[C@H](C(C)C)N(C)C(=O)[C@H]1CNC[C@H]1C(F)(F)F)C(=O)N1CCC[C@H](N1)C(=O)OCC(C)(C)C2 [Compound A216]
Data returned: 6.00 to 7.00

Data request: Identify pIC50 associated with the compound CCn1c(-c2cccnc2[C@H](C)OC)c2c3cc(ccc31)-c1cc(O)cc(c1)C[C@H](NC(=O)[C@H](C(C)C)N(C)C(=O)[C@H]1OCC[C@H]1c1ccccc1)C(=O)N1CCC[C@H](N1)C(=O)OCC(C)(C)C2 [Compound A425]
Data returned: 5.00 to 6.00

Data request: Identify pIC50 associated with the compound CCn1c(-c2cccnc2[C@H](C)OC)c2c3cc(ccc31)-c1cc(O)cc(c1)C[C@H](NC(=O)[C@H](C(C)C)N(C)C(=O)C1CN3CCCN1CC3)C(=O)N1CCC[C@H](N1)C(=O)OCC(C)(C)C2 (stereo partly drawn) [Compound A404]
Data returned: 6.00 to 7.00

Data request: Identify pIC50 associated with the compound CCn1c(-c2cccnc2[C@H](C)OC)c2c3cc(ccc31)-c1csc(n1)C[C@H](NC(=O)[C@H](C(C)C)N(C)C(=O)N1CCO[C@H](c3ccccc3)C1)C(=O)N1CCC[C@H](N1)C(=O)OCC(C)(C)C2 [Compound A582]
Data returned: 6.00 to 7.00

---

molecular target: KRAS G13C (Homo sapiens (Human), UniProt P01116+P62937, G13C); test: Ras-Raf disruption/FRET/MOA assay (BRAF RBD, Cyclophilin A); format: biochemical; conditions: KRAS G13C FRET IC50
Sequence (P01116 other isoform, or with tags, fused parts or gaps G13C): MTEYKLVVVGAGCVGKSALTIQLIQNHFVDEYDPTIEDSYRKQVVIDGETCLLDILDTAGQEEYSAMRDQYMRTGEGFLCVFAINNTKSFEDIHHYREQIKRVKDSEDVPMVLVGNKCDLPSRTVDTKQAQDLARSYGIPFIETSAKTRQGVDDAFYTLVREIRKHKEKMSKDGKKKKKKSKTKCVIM
Sequence (P62937 whole entry): as the sequence (P62937 whole entry) above
pIC50: −log10 of the molar value.
measured_attribute: pIC50

CCn1c(-c2cccnc2[C@H](C)OC)c2c3cc(ccc31)-c1cc(O)cc(c1)C[C@H](NS(=O)(=O)c1ccc(OC)cc1OC)C(=O)N1CCC[C@H](N1)C(=O)OCC(C)(C)C2: < 5.00

Below: the item to evaluate.
Data request: Identify pIC50 associated with the compound `CCn1c(-c2cccnc2[C@H](C)OC)c2c3cc(ccc31)-c1cc(O)cc(c1)C[C@H](NC(=O)N1CCOCC1)C(=O)N1CCC[C@H](N1)C(=O)OCC(C)(C)C2`
Data returned: 5.00 to 6.00

---

system: NCI-H358 cells (K-Ras G12C); assay: CellTiter-Glo cell viability, NCI-H358; format: cell-based, human; conditions: Homo sapiens, NCI-H358, 120 h, K-Ras G12C, 5-day treatment; read-out: H358 Cell Viability IC50
measured_attribute: IC50

CCn1c(-c2cccnc2[C@H](C)OC)c2c3cc(ccc31)-c1csc(n1)C[C@H](NC(=O)C1CC1)C(=O)N1CCC[C@H](N1)C(=O)OCC(C)(C)C2: 100 to 1000 nM
CCn1c(-c2cccnc2[C@H](C)OC)c2c3cc(ccc31)-c1csc(n1)C[C@H](NC(=O)[C@H](C(C)C)N(C)C(=O)N1CCCC[C@@H](N(C)C)C1)C(=O)N1CCC[C@H](N1)C(=O)OCC(C)(C)C2: 10 to 100 nM
CCn1c(-c2cccnc2[C@H](C)OC)c2c3cc(ccc31)-c1cc(O)cc(c1)C[C@H](NC(=O)[C@H](C(C)C)N(C)C(=O)[C@H]1OCC[C@H]1N)C(=O)N1CCC[C@H](N1)C(=O)OCC(C)(C)C2: 100 to 1000 nM
CCn1c(-c2cccnc2[C@H](C)OC)c2c3cc(ccc31)-c1cc(O)cc(c1)C[C@H](NC(=O)[C@H](C(C)C)N(C)C(=O)[C@H]1CCCO1)C(=O)N1CCC[C@H](N1)C(=O)OCC(C)(C)C2: 10 to 100 nM
CCn1c(-c2cccnc2[C@H](C)OC)c2c3cc(ccc31)-c1cc(O)cc(c1)C[C@H](NC(=O)[C@H](C(C)C)N(C)C(=O)[C@H]1CN[C@@H]3CCO[C@H]13)C(=O)N1CCC[C@H](N1)C(=O)OCC(C)(C)C2: 100 to 1000 nM
CCn1c(-c2cccnc2[C@H](C)OC)c2c3cc(ccc31)-c1csc(n1)C[C@H](NC(=O)[C@H](C(C)C)N(C)C(=O)N1C[C@H](C)N(C)C[C@@H]1C)C(=O)N1CCC[C@H](N1)C(=O)OCC(C)(C)C2: 100 to 1000 nM
CCn1c(-c2cccnc2[C@H](C)OC)c2c3cc(ccc31)-c1csc(n1)C[C@H](NC(=O)[C@H](C(C)C)N(C)C(=O)N1CC[C@@H](F)[C@H](N)C1)C(=O)N1CCC[C@H](N1)C(=O)OCC(C)(C)C2: 10 to 100 nM
CCn1c(-c2cccnc2[C@H](C)OC)c2c3cc(ccc31)-c1cc(O)cc(c1)C[C@H](NC(=O)[C@H](C(C)C)N(C)C(=O)[C@@]1(F)CCN(C(=O)OC)C1)C(=O)N1CCC[C@H](N1)C(=O)OCC(C)(C)C2: 10 to 100 nM
CCn1c(-c2cccnc2[C@H](C)OC)c2c3cc(ccc31)-c1cc(O)cc(c1)C[C@H](NC(=O)[C@@H](C(C)C)N(C)C(C)=O)C(=O)N1CCC[C@H](N1)C(=O)OCC(C)(C)C2: 1000 to 10000 nM
CCn1c(-c2cccnc2[C@H](C)OC)c2c3cc(ccc31)-c1csc(n1)C[C@H](NC(=O)[C@H](C(C)C)N(C)C(=O)N1CCN(C(=O)[C@@H]3CCCN3C)CC1)C(=O)N1CCC[C@H](N1)C(=O)OCC(C)(C)C2: 10 to 100 nM

Data request: Identify IC50 associated with the molecule `CCn1c(-c2cccnc2[C@H](C)OC)c2c3cc(ccc31)-c1csc(n1)C[C@H](NC(=O)C1(F)CC1)C(=O)N1CCC[C@H](N1)C(=O)OCC(C)(C)C2`
Data returned: 100 to 1000 nM

Data request: Identify IC50 associated with the molecule `CCn1c(-c2cccnc2[C@H](C)OC)c2c3cc(ccc31)-c1cc(O)cc(c1)C[C@H](NC(=O)[C@H](C(C)C)N(C)C(=O)[C@]1(F)CCN(C(=O)OC)C1)C(=O)N1CCC[C@H](N1)C(=O)OCC(C)(C)C2`
Data returned: 100 to 1000 nM

Data request: Identify IC50 associated with the molecule CCn1c(-c2cnccc2COC)c2c3cc(ccc31)-c1cc(O)cc(c1)C[C@H](NC(=O)C(C)C1CCOCC1)C(=O)N1CCC[C@H](N1)C(=O)OCC(C)(C)C2 (stereo partly drawn)
Data returned: 1000 to 10000 nM

Data request: Identify IC50 associated with the molecule `CCn1c(-c2cccnc2[C@H](C)OC)c2c3cc(ccc31)-c1csc(n1)C[C@H](NC(=O)[C@H](C(C)C)N(C)C(=O)N1CCC[C@@H](N(C)C)CC1)C(=O)N1CCC[C@H](N1)C(=O)OCC(C)(C)C2`
Data returned: 10 to 100 nM

Data request: Identify IC50 associated with the molecule `CCn1c(-c2cnccc2COC)c2c3cc(ccc31)-c1cc(O)cc(c1)C[C@H](NC(=O)[C@H](C(C)C)N(C)C(=O)[C@H]1CNC[C@H]1C(F)(F)F)C(=O)N1CCC[C@H](N1)C(=O)OCC(C)(C)C2`
Data returned: 1000 to 10000 nM

Data request: Identify IC50 associated with the molecule `CCn1c(-c2cnccc2COC)c2c3cc(ccc31)-c1cc(O)cc(c1)C[C@H](NC(=O)[C@H](C(C)C)N(C)C(=O)O[C@@H]1CCOC1)C(=O)N1CCC[C@H](N1)C(=O)OCC(C)(C)C2`
Data returned: 1000 to 10000 nM

Data request: Identify IC50 associated with the molecule `CCn1c(-c2cccnc2[C@H](C)OC)c2c3cc(ccc31)-c1cc(O)cc(c1)C[C@H](NC(=O)[C@H](C(C)C)N(C)C(=O)[C@@H]1[C@H]3CC[C@H](C3)[C@@H]1N)C(=O)N1CCC[C@H](N1)C(=O)OCC(C)(C)C2`
Data returned: 100 to 1000 nM

Data request: Identify IC50 associated with the molecule `CCn1c(-c2cccnc2[C@H](C)OC)c2c3cc(ccc31)-c1csc(n1)C[C@H](NC(=O)[C@H](C(C)C)N(C)C(=O)N1CC[C@@]3(CCNC3=O)C1)C(=O)N1CCC[C@H](N1)C(=O)OCC(C)(C)C2`
Data returned: 100 to 1000 nM
